system-under-test: recombinant human baculovirus-expressed GST-tagged FASN (Homo sapiens, UniProt P49327)
Construct: GST
Sequence (P49327 whole entry): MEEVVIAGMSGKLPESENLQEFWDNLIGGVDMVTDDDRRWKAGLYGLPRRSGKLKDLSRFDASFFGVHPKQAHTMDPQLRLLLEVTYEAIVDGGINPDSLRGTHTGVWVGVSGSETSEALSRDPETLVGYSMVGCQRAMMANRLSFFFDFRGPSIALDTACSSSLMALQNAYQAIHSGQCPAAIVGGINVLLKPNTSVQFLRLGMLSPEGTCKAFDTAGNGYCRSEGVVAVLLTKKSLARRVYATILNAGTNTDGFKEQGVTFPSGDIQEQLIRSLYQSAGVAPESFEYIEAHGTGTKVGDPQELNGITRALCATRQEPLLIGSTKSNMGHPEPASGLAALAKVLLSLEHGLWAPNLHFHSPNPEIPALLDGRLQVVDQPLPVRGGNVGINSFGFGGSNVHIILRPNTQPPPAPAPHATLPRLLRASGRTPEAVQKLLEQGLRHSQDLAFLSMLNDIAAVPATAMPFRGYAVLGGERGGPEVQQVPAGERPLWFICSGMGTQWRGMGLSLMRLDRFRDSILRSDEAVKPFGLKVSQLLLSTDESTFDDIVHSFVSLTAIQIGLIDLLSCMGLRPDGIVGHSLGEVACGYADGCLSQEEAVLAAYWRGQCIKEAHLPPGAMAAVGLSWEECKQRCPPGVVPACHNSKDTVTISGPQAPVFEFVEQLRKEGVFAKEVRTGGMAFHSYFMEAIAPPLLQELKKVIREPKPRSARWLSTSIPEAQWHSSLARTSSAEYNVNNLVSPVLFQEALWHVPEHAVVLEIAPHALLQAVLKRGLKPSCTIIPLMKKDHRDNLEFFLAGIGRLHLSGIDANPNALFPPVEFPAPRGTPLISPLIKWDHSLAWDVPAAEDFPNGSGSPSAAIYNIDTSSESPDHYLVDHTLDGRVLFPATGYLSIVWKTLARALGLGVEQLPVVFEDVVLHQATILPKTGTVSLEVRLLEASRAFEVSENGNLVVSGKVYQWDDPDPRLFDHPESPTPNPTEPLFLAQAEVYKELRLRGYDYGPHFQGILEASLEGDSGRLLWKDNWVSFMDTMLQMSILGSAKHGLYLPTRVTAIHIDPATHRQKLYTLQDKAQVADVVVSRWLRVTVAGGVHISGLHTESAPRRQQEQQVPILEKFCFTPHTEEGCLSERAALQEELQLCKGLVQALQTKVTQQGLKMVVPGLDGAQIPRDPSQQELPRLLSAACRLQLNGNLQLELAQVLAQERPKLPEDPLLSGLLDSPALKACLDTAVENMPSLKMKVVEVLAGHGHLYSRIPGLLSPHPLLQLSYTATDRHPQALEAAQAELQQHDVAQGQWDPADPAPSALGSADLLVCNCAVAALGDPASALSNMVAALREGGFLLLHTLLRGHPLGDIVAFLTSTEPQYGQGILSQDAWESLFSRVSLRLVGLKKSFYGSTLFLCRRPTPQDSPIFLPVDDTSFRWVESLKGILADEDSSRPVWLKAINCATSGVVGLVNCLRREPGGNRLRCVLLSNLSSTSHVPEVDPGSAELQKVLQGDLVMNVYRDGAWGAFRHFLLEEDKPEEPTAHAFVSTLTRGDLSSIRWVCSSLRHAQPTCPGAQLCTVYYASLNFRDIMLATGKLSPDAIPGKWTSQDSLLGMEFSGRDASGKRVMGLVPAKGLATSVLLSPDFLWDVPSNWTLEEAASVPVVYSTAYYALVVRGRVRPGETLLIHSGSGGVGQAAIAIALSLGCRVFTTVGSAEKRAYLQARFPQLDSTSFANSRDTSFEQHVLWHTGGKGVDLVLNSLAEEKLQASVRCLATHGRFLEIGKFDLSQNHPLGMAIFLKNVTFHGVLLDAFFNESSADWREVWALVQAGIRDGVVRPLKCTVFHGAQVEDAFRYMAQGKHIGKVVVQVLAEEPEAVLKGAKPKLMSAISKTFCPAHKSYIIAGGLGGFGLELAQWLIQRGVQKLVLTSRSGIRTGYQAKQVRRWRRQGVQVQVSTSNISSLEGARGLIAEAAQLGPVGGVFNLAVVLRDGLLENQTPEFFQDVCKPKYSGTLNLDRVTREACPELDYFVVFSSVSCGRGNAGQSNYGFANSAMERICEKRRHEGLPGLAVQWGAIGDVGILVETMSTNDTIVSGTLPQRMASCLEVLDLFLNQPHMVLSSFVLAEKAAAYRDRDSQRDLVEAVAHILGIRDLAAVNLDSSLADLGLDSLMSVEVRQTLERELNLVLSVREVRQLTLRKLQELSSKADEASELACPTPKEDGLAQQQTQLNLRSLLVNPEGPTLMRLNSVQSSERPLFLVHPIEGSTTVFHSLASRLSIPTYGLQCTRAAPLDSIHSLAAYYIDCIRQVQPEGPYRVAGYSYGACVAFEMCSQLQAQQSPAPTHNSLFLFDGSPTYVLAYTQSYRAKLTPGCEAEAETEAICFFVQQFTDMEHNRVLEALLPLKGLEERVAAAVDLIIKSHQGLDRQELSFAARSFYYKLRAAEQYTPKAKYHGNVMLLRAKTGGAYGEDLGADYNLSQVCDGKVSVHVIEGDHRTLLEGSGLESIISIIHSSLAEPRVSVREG
procedure-summary: biochemical
condition-set: 5 nM FASN, 150 μM NADPH, 10 μM acetyl-CoA, 25 μM malonyl-CoA, 90 minutes incubation; read-out: IC50 data for Compounds of Formula I, Activity
pIC50: −log10 of the molar value. Counter-ions that a name gives are not always drawn.
What pIC50 was measured for each of the following?

Recorded pIC50 (compound CCNC(=O)N1CCC2(CCc3cc(-c4ccc5cccnc5c4C)ccc3O2)CC1 [Example 97] ): 7.00 to 9.00

Recorded pIC50 (compound Cc1nccc2cc(-c3cc4c(cc3F)OC3(CC4)CCN(C(N)=O)CC3)ccc12 [Example 234] ): 5.00 to 6.00

Recorded pIC50 (compound Cc1c(-c2ccc3c(c2)CCC2(CCN(C(=O)[C@H]4CCCO4)CC2)O3)cnc2ccccc12 [Example 4, HCl] ): 7.00 to 9.00

Recorded pIC50 (compound Cc1nccc2cc(-c3ccc4c(c3)CCC3(CCN(C(=O)NOC(C)C)CC3)O4)ccc12 [Example 180] ): 7.00 to 9.00

Recorded pIC50 (compound CCC(=O)N1CCC2(CCc3cc(-c4cnc5ccccc5c4C)ccc3O2)CC1 [Example 2, HCl] ): 7.00 to 9.00

Recorded pIC50 (compound CCC(=O)N1CCC2(CCc3cc(-c4cnc5c(C)cccc5c4)ccc3O2)CC1 [Example 12] ): 7.00 to 9.00

Recorded pIC50 (compound Cc1nccc2cc(-c3ccc4c(c3)CCC3(CCN(C(=O)NO)CC3)O4)ccc12 [Example 189] ): 5.00 to 6.00

Recorded pIC50 (compound Cc1c(-c2ccc3c(c2)CCC2(CCN(C(=O)C4CC4)CC2)O3)cnc2ccccc12 [Example 3, HCl] ): 7.00 to 9.00

Recorded pIC50 (compound O=C(NO)N1CCC2(CCc3cc(-c4cc5ccccc5cn4)ccc3O2)CC1 [Example 151] ): 5.00 to 6.00

Recorded pIC50 (compound CCONC(=O)N1CCC2(CC1)Cc1cc(-c3ccc4cccnc4c3C)ccc1O2 [Example 154] ): 5.00 to 6.00

Recorded pIC50 (compound CCONC(=O)N1CCC2(CCc3cc(-c4ccc5cnc(C)cc5c4)ccc3O2)CC1 [Example 207] ): 7.00 to 9.00

Recorded pIC50 (compound CCNC(=O)N1CCC2(CC1)Cc1cc(-c3ccc4ccnn4c3C)ccc1O2 [Example 165] ): 5.00 to 6.00

Recorded pIC50 (compound CCNC(=O)N1CCC2(CC1)Cc1cc(-c3ccc4cccnc4c3C)ccc1O2 [Example 156] ): 5.00 to 6.00

Recorded pIC50 (compound Cc1c(-c2ccc3cccnc3c2C)ccc2c1CCC1(CCN(C(N)=O)CC1)O2 [Example 240] ): 5.00 to 6.00

Recorded pIC50 (compound Cc1c(-c2ccc3c(c2)CCC2(CCN(C(=O)NOCC(C)C)CC2)O3)ccc2cccnc12 [Example 104] ): 6.00 to 7.00

Recorded pIC50 (compound NC(=O)N1CCC2(CCc3cc(-c4ccc5scnc5c4)ccc3O2)CC1 [Example 83] ): 6.00 to 7.00

Recorded pIC50 (compound Cc1c(-c2cc(F)c3c(c2)CCC2(CCN(C(N)=O)CC2)O3)ccc2cccnc12 [Example 237] ): 7.00 to 9.00

Recorded pIC50 (compound NC(=O)N1CCC2(CCc3cc(-c4ccc5[nH]ccc5c4)ccc3O2)CC1 [Example 76] ): 6.00 to 7.00

Recorded pIC50 (compound Cc1c(-c2ccc3c(c2)CCC2(CCN(C(N)=O)CC2)O3)ccc2ccc(=O)[nH]c12 [Example 172] ): 5.00 to 6.00

Recorded pIC50 (compound CCC(=O)N1CCC2(CCc3cc(-c4ccccn4)ccc3O2)CC1 [Example 215, HCl] ): 5.00 to 6.00

Recorded pIC50 (compound CCONC(=O)N1CCC2(CCc3cc(-c4ccc5cccnc5c4OC)ccc3O2)CC1 [Example 211] ): 7.00 to 9.00

Recorded pIC50 (compound COc1c(-c2ccc3c(c2)CC2(CCN(C(=O)NO)CC2)O3)ccc2cccnc12 [Example 173] ): 5.00 to 6.00

Recorded pIC50 (compound Cc1cccc2cc(-c3ccc4c(c3)CCC3(CCN(C(=O)[C@H]5CCCO5)CC3)O4)cnc12 [Example 14, HCl] ): 7.00 to 9.00

Recorded pIC50 (compound CCONC(=O)N1CCC2(CCc3cc(-c4ccc5cccnc5c4Cl)ccc3O2)CC1 [Example 69] ): 7.00 to 9.00

Recorded pIC50 (compound CCONC(=O)N1CCC2(CC1)Cc1cc(-c3cnc4ccccc4c3C)ccc1O2 [Example 158] ): 5.00 to 6.00

Recorded pIC50 (compound O=C(C1CC1)N1CCC2(CCc3cc(-c4ccncc4)ccc3O2)CC1 [Example 227, HCl] ): 5.00 to 6.00

Recorded pIC50 (compound Cc1c(-c2ccc3c(c2)CCC2(CCN(C(N)=O)CC2)O3)cnc2ccccc12 [Example 190] ): 7.00 to 9.00

Recorded pIC50 (compound Cn1cnc2cc(-c3ccc4c(c3)CCC3(CCN(C(N)=O)CC3)O4)ccc21 [Example 81] ): 6.00 to 7.00

Recorded pIC50 (compound CONC(=O)N1CCC2(CCc3cc(-c4ccc5ccnn5c4C)ccc3O2)CC1 [Example 124] ): 7.00 to 9.00

Recorded pIC50 (compound CONC(=O)N1CCC2(CCc3cc(-c4cc5ccccc5cn4)ccc3O2)CC1 [Example 148] ): 7.00 to 9.00

Recorded pIC50 (compound O=C([C@H]1CCCO1)N1CCC2(CCc3cc(-c4ccc5c(C6CC6)nccc5c4)ccc3O2)CC1 [Example 5] ): 7.00 to 9.00

Recorded pIC50 (compound Cc1c(-c2ccc3c(c2)CCC2(CCN(C(=O)[C@H]4CCCO4)CC2)O3)ccc2nccn12 [Example 28] ): 7.00 to 9.00

Recorded pIC50 (compound CCC(=O)N1CCC2(CCc3cc(-c4ccc5c(C)nccc5c4)ccc3O2)CC1 [Example 24] ): 7.00 to 9.00

Recorded pIC50 (compound NC(=O)N1CCC2(CCc3cc(-c4cc5ccccc5[nH]4)ccc3O2)CC1 [Example 236] ): 5.00 to 6.00
